# Method Notes: NCI Yeast Anticancer Drug Screen. Data for the rad50EPP+ strain (AID 151)
# Condition Notes: S. cerevisiae rad50 mutant strain, at 11.0 µM
Compounds without any hit were thinned out: in the full panel of roughly 79,000, 15% have a hit. Active and inactive are the calls of the source. No stated cut-off is given here; in the data, active means growth inhibition above about 70%; inactive means the rest.
Labels: active, inactive

| Molecule | Discrete Label |
| --- | --- |
| CN(C)CCn1c2c3ccccc3ccc2c2oc(=O)c3ccccc3c21 | active |
| Cc1ccc(S(=O)(=O)NC(=O)NC2=NC(C)(C)N(c3ccc(Cl)c(Cl)c3)C(N)=N2)cc1 | inactive |
| c1ccc2c(c1)sc1cc3ccncc3cc12 | inactive |
| O=Nc1c(NO)ccc2nn(-c3ccccc3)nc12 | inactive |
| N#C/C(=C\c1cccc(OCc2ccccc2)c1)c1ccc([N+](=O)[O-])cc1 | inactive |
| S=C(S)NN1CCOCC1 | active |
| S=C(N/N=C/c1ccccn1)Nc1ccc(Cl)cc1 | inactive |
| CCOP(=O)(OCC)C(Cc1ccccc1)N=C(c1ccccc1)c1ccccc1 (configuration not stated) | inactive |
| C/C(=N\O)C1CC2C=C(C#N)C1N(Cc1ccccc1)C2 (configuration not stated) | inactive |
| Cc1ccc(Cl)c2[nH]c(-c3ccccc3)cc(=O)c12 | inactive |
| NC(=NCc1ccccc1)N/N=C\c1ccnc2ccccc12 | inactive |
| O=C1C=CC(=Nc2ccc3c(c2)Cc2cc(NC(=O)C(F)(F)F)ccc2-3)O1 | active |
| CC(C)/C(Cl)=N\OC(=O)Nc1ccc(F)cc1 | inactive |
| COc1ccccc1/C=C1\Sc2scc(-c3cccc([N+](=O)[O-])c3)[n+]2C1=O | active |
| O=C(c1cc(Br)ccc1O)c1cc(Br)ccc1O | active |
| O=C(OCC=C1CCCC1)c1cc([N+](=O)[O-])cc([N+](=O)[O-])c1 | inactive |
| CC/C(=C(\c1ccccc1)c1ccc(OCCN(C)C)cc1)c1ccccc1 | inactive |
| O=C1C=CC(=C(c2ccccc2)c2ccccc2)c2ccccc21 | inactive |
| COC(=O)CCNc1c2ccccc2nc2cccc([N+](=O)[O-])c12 | active |
| Clc1cccc(C(Nc2nncs2)Nc2nncs2)c1Cl | inactive |
| COc1ccc(O)c(/C=N\Nc2ccccc2)c1 | inactive |
| CC(=O)OCCOCNC(=S)N/N=C(\C)c1cnccn1 | inactive |
| O=[N+]([O-])/C=C/c1ccc2ccccc2c1 | active |
| CC1=C(SCCO)C(=O)c2ccccc2C1=O | inactive |
| COP(=O)(OC)/C(=C\C1=CN(C(c2ccccc2)(c2ccccc2)c2ccccc2)CN1)NC=O | active |
| COC1=CC(=O)C(C2(OC(C)C)OC(=O)C(Cl)=C2Cl)=CC1=O (configuration not stated) | active |
| CCOC(=O)c1cnc2cc(C(F)(F)F)ccc2c1N=[N+]=[N-] | inactive |
| COc1cc(C2C3=C(COC3=O)Oc3cc4c(cc32)OCO4)ccc1O (configuration not stated) | inactive |
| O=C(N=Nc1cc(Cl)ccc1Cl)NNc1cc(Cl)ccc1Cl | inactive |
| c1ccc(-c2nc3cccnc3s2)cc1 | inactive |
| CC[C@@]1(O)C(=O)OCc2c1cc1n(c2=O)Cc2cc3c(CN(C)C)c(O)ccc3nc2-1 | inactive |
| CCCCCCCCCCCCCCCCCCOCC(O)COP(=O)(O)OCC1OC(n2cc(F)c(=O)[nH]c2=O)CC1O (configuration not stated) | active |
| COC(=O)C1=C(C)NC(C)=C(C(=O)OCCCN2CCC(c3ccccc3)(c3ccccc3)CC2)C1c1cccc([N+](=O)[O-])c1 (configuration not stated) | active |
| O=C(NC(Nc1ccc(F)c(Cl)c1)(C(F)(F)F)C(F)(F)F)C(C(F)(F)F)C(F)(F)F | inactive |
| COc1cc2c(c(OC)c1OC)-c1c(cc3c(c1OC)OCO3)CC(C)C(C)(O)C2OC(=O)c1ccccc1 (configuration not stated) | inactive |
| COc1ccc(/C=C/C(=O)C(C)(C)Br)cc1 | active |
| COc1ccc(-c2cn(-c3ccc(I)cc3)c3ncnc(N)c23)cc1 | inactive |
| COc1cc2c(cc1[N+](=O)[O-])C(=O)C(Br)(Br)CCC2 | active |
| COc1cc2ccc(/C=C\[N+](=O)[O-])cc2cc1OC | active |
| O=[N+]([O-])c1ccc2c(c1)C(N1CCN(CCO)CC1)Cc1ccc(F)cc1S2 (configuration not stated) | inactive |
| Oc1cccc2c(Cl)ccnc12 | active |
| CCOC(=O)[C@H]1Nc2ccccc2C2c3ccccc3CC21 (some centres not stated) | inactive |
